Origin of the recorded values: patent US9340577B2

Field: A2 Bind.. Provide a value for each of the sequences that follow.
- tgt: A2.1 HLA molecules (Homo sapiens, UniProt P04439, D140Y/D185E/D98H/E176V/E277Q/G131W/G231S/I119V/I121R/I166T/I218V/L300P/L318F/N151K/N90K/P208A/P217A/Q86G/Q94H/R138H/R169H/T345S)
- Format: binding
- Parameters: scale not given here
Enter the number alone.

// A2 Bind. value for `RMGAVTTEV` : 0.0200

Per the records, this sequence ( `GLVGLRIVFA` ) has A2 Bind. equal to 0.0195

Recorded A2 Bind. (sequence `HLPDLVHFA` ): 0.1100

Briefly, A2 Bind. measured for `YLHTLWKAGV` : 0.1500

Entry `ALLDGGNML` ; A2 Bind. = 0.0320

// `LLGRRSFEV` : A2 Bind. value = 0.0540

Notebook: `KLWVTVYYGV` , A2 Bind. read as 0.0150

Record `RLPDRVHFA` , field A2 Bind.: 0.0940
